test system: CAKI-1 renal; assay: NCI tumour cell line growth inhibition, 48 h
Measured TGI, listed per entry.

Consider the reported TGI for these compounds:
C[C@]12OC[C@H](c3ccccc3)N1C(=O)C1[C@H]2CC12SCCS2 (stereo partly drawn)
> 100 µM
O=C(/C(=C(/Br)I)c1ccccc1)c1ccccc1
> 100 µM

Item `Oc1ccccc1/C=N/Nc1ccc2ccccc2n1` has what recorded TGI?
> 100 µM

What value of TGI has been reported for the following compound? `O=C(C#Cc1c[nH]c(=O)[nH]c1=O)c1ccccc1Cl`
31.3 µM

Value lookup for TGI; key = CCC(=O)C(c1ccccc1)c1ccccn1 (stereo not drawn)
> 100 µM

Can you share its TGI? I mean this compound: `Cc1ccc2c(c1)nc(N)n[n+]2[O-]`
> 100 µM

Quick one: TGI of `COc1cc(/C=C\[N+](=O)[O-])ccc1O` ?
10.9 µM

Consider the compound `O=C(Nc1nc2ccccc2s1)OCC(F)(F)F` and give its measured TGI.
> 100 µM

###

system: COLO 205 colon; experiment: NCI tumour cell line growth inhibition, 48 h
assay-endpoint: TGI (µM)
// note: answer is a bare numeric in µM

Check out these entries, answers already filled in.
O=C(CCN1CCN(c2cnc3ccccc3n2)CC1)c1csc2ccccc12
59
COc1ccc2c(c1)c1c(n2CCN2CCOCC2)-c2ccccc2CC1
30.8

We now examine a further compound.
Looking for the measured TGI of COc1c(C2CC(=O)Nc3c2cnn3Cc2ccco2)cc2c(c1OC)OCO2 (stereo not given) , can you help?
2.86

###

The entries below are paired with their reported GI50.
tested on: HL-60(TB) leukemia; assay: NCI tumour cell line growth inhibition, 48 h

Solved cases below.
CC(=O)OCC1OC(O[C@@H]2C[C@H]3C(C)(C)[C@H](OC(C)=O)CC[C@]3(C)[C@H]3CCC4=C([C@@H](C)C[C@@H](O)[C@H](O)C(C)(C)O)CC[C@@]4(C)[C@@]32C)C(O)C(O)C1O (stereo partly drawn)
13 µM
Cc1cc([C@@H](C)Nc2ccccc2C(=O)O)c2nc(N3CCOCC3)cc(=O)n2c1
5.5 µM

Please give the measured GI50 for this compound: `Cc1cc2nc3c4cc(Cl)ccc4n(CCN(C)C)c3nc2cc1C`
1.93 µM

###

test system: HCT-15 colon; test: NCI tumour cell line growth inhibition, 48 h; in the data active = GI50 below about 0.43 µM; inactive = the rest
Result category, one only: yes = active, no = inactive

Returns: the outcome recorded for `COc1ccc(/C=C/C=C(/C#N)C(N)=S)cc1` in this assay.
no

###

tested on: MDA-MB-231 breast; test: NCI tumour cell line growth inhibition, 48 h; in the data active = GI50 below about 0.43 µM; inactive = the rest
Pick one: active, inactive

CC(=O)c1ccc(Nc2cc(-c3ccccc3)nc3c(O)cccc23)cc1
inactive
O=C(CCN1CCN(c2cnc3ccccc3n2)CC1)c1csc2ccccc12
inactive
CCOc1ccc(S(=O)(=O)/N=C2\C=C(SCC(=O)O)C(=O)c3ccccc32)cc1
inactive

Per the records of this test, what outcome belongs to C=C1C(O)C2CCC(C)(C)C(=O)C2=C(CC(C)C)C12CC2 (configuration not stated) ?
inactive

Please state the recorded outcome for this molecule: `Oc1ccccc1/C=N/Nc1ccc2ccccc2n1`
inactive

###

test system: OVCAR-4 ovarian; test: NCI tumour cell line growth inhibition, 48 h
assay-endpoint: TGI

Use the examples below as a reference point.
COC1OC(=O)[C@H]2O[N+]([O-])=C(C)[C@@H]12 (stereo partly specified)
> 100 µM
CC(=O)c1ccc(Nc2cc(-c3ccccc3)nc3c(O)cccc23)cc1
64.7 µM
CCOP(=O)(OCC)[C@H](O)c1ccsc1
> 100 µM
Cc1ccc2c(C(C[N+](=O)[O-])c3cccs3)c(-c3ccccc3)[nH]c2c1 (stereo unspecified)
13.9 µM
Cc1c(Cl)cccc1NC(=O)C(=O)C1C(=O)CC(C)(C)CC1=O
> 100 µM

Could you now consider this next compound?
For the record COc1cc2oc(-c3ccc(O)cc3)c(OC3OC(C)C(O)C(O)C3O)c(=O)c2c(O)c1OC (stereo unspecified) , what value of TGI is listed for OVCAR-4 ovarian?
> 100 µM

###

Measured TGI, listed per entry for reference.
tested on: CCRF-CEM leukemia; assay: NCI tumour cell line growth inhibition, 48 h
Your answer should be a plain number; it is taken to be in µM.

These recorded examples may help you get a feel for the data.
CC(=O)c1ccc(Nc2cc(-c3ccccc3)nc3c(O)cccc23)cc1
34.6
CN1CCN(Cc2ccc(C(=O)Nc3cncc(C#Cc4cnc(N)c5ccccc45)c3)cc2C(F)(F)F)CC1
9.07
COC1(C(=O)N2Cc3nc(Cl)nc(N[C@H](C)c4cc(N)cc(C(F)(F)F)c4)c3C2)CCOCC1
99

Query compound follows.
Item: Cc1cn(C2C=CC(COP(=O)(OCC3=CC(=O)c4ccccc4C3=O)N(C)CCCCCl)O2)c(=O)[nH]c1=O (stereo not drawn) Test system: CCRF-CEM leukemia Read-out: TGI Value: ?
11.9

###

test system: UO-31 renal; experiment: NCI tumour cell line growth inhibition, 48 h
Classification field: Yes = TGI at or over 30 µM; No = TGI under 30 µM.

As a guide, the following entries are already answered.
CC(=O)OC1=C2CC3(C)OC(=O)CC(C)(C)C3=CC=C2C=C(C(C)C)C1=O (configuration not stated)
No
COc1ccc(C(=O)Nc2ncc(Cc3ccc(Cl)cc3)s2)cc1
Yes
COc1ccc(Nc2c(C#N)c3n(c4ccccc24)c2ccccc2[n+]3C)cc1OC
No
c1cc(-c2cnc(-c3ccc4c(c3)CCCO4)o2)ccn1
No
C=C1C(O)C2CCC(C)(C)C(=O)C2=C(CC(C)C)C12CC2 (configuration not stated)
Yes

Kindly consider the entry below.
I'd appreciate it if you could say whether C#CCNC(=O)NC(CCCNC(=O)OCc1ccccc1)C(=O)OCc1ccccc1 (configuration not stated) has TGI at least equal to 30 µM.
Yes

###

system: SW-620 colon; assay: NCI tumour cell line growth inhibition, 48 h
Some molecules, each annotated with its measured TGI.

Worked set:
C=CC(=O)N[C@H]1C=C(C)c2c(-c3cnc4ccccc4c3)c3c(N)ncnc3n2C1
> 95.5 µM
c1ccc(C[P+]2(c3ccccc3)c3ccccc3-c3ccccc32)cc1
> 100 µM
Cc1ccccc1C1OC1C(=O)c1ccccc1N (stereo not given)
> 100 µM
Cc1cc([C@@H](C)Nc2ccccc2C(=O)O)c2nc(N3CCOCC3)cc(=O)n2c1
> 10 µM
Cc1ccc2c(c1)nc(N)n[n+]2[O-]
> 100 µM

Param item = O=c1[nH]cnc2c(C3OC(CO)C(O)C3O)c[nH]c12 (stereo not given) ; retrieve measured TGI.
> 100 µM

Reported TGI, molecule `C[C@@H]1CC[C@@H]2[C@@H]1[C@H](OC(=O)/C=C/c1ccccc1)[C@]1(c3ccccc3)C[C@@H](OC(=O)CO)[C@@]2(C)O1` : ____
42.6 µM

###

tested on: TK-10 renal; assay: NCI tumour cell line growth inhibition, 48 h
Mark satisfied for reported TGI of 40 µM or greater; mark not satisfied for anything smaller.

Has `CNC(=O)c1ccccc1CC1(O)c2ccccc2Oc2ccccc21` a recorded TGI greater than or equal to 40 µM?
satisfied

Determine whether this molecule has TGI no lower than 40 µM: `Cc1cc2c(cc1C)[n+](=O)c(C(=O)C/C(=N/NC(=O)c1ccccc1O)C(=O)Nc1ccccc1C(C)C)c(C)n2[O-]`
satisfied

Say whether `c1cc2nnc1SCCSCCSc1ccc(nn1)SCCSCCS2` shows TGI of 40 µM or more.
satisfied

hey, is TGI for this one >= 40 µM? `COc1cccc(/C=C/C(=O)c2cc3c(N)c(C(=O)Nc4ccccc4C)sc3nc2C)c1`
not satisfied

Assess whether reported TGI for CCN(CC)CCOC(c1cc(OC)ccc1OC)c1ccc2n1-c1ccccc1OC2 (stereo not given) sits at 40 µM or higher.
not satisfied

Confirm if TGI reported for the molecule `c1ccc([P+](CCNCCNCC[P+](c2ccccc2)(c2ccccc2)c2ccccc2)(c2ccccc2)c2ccccc2)cc1` is 40 µM or above.
satisfied

Is it the case that `CSC1=NC=CCN1C` has TGI reaching or exceeding 40 µM?
satisfied

Please check the record `CC(C)(C)OC(=O)n1cc(CNC(=S)Nc2ccccc2)c2ccccc21` and state if its TGI is at or above 40 µM.
satisfied

Hi team, for Cc1cn(C2C=CC(COP(=O)(OCC3=CC(=O)c4ccccc4C3=O)N(C)CCCCCl)O2)c(=O)[nH]c1=O (stereo not given) , is the recorded TGI at or above 40 µM?
not satisfied

// inclusive: TGI at least 40 µM? input: `O=C(Nc1cccc(-n2ccc3c(NC(=O)c4ccccc4)nccc32)c1)c1cccc(C(F)(F)F)c1`
not satisfied

###

Recorded TGI values for a group of compounds are listed next.
tested on: SK-OV-3 ovarian; assay: NCI tumour cell line growth inhibition, 48 h

These solved cases illustrate the format of a correct answer.
C#Cc1cnc(=O)n(C2CC(O)C(CO)O2)c1 (centres undefined)
> 100 µM
COc1cc2ncn(-c3cc(OCc4ccccc4Cl)c(C(N)=O)s3)c2cc1OC
9.32 µM
CC(=O)NC1C(OCc2ccccc2)OC(CO)C(O)C1OCC(=O)N[C@@H](C)C(=O)N[C@H](CCC(=O)NCCNCCNc1c2ccccc2nc2cccc([N+](=O)[O-])c12)C(N)=O (some centres undefined)
> 100 µM
C[C@@H]1CC[C@@H]2[C@@H]1[C@H](OC(=O)/C=C/c1ccccc1)[C@]1(c3ccccc3)C[C@@H](OC(=O)CO)[C@@]2(C)O1
55.6 µM
O=C(CSc1nc2ccc([N+](=O)[O-])cc2[nH]1)Nc1ccc(F)c(Cl)c1
4.79 µM

Recorded TGI for `CN(C)CC(=O)N1CCC(c2ccc(NC(=O)c3ncc(C#N)[nH]3)c(C3=CCCCC3)c2)CC1` with SK-OV-3 ovarian, please?
17.4 µM

What value of TGI on SK-OV-3 ovarian does `COc1ccc(C(=S)N2CCN(c3cccc(Cl)c3)CC2)cc1` have?
> 100 µM

Return TGI measured with SK-OV-3 ovarian given this compound: `C[N+](C)(C)CC(=O)N/N=c1\cc(C(=O)Nc2ccc(N=O)cc2C#N)oc2cc(O)ccc12`
> 100 µM

Under SK-OV-3 ovarian: TGI value of `O=C(c1cccs1)c1c(C(F)(F)F)n([O-])c2ccccc2[n+]1=O` ?
7.56 µM

Entry COc1ccc(-c2nn(-c3cccc(Cl)c3)cc2C2CC(c3ccccc3)=NN2C(C)=O)cc1 (centres undefined) , system SK-OV-3 ovarian: what TGI was measured?
43.2 µM

Find TGI (SK-OV-3 ovarian) for the entry `Cn1cc(NC(=O)c2cc(NC(=O)CCCCCCCCCCC(=O)Nc3cc(C(=O)Nc4cc(C(=O)NCCC(=N)N)n(C)c4)n(C)c3)cn2C)cc1C(=O)NCCC(=N)N`
> 100 µM

Fill in the recorded TGI for this compound, with SK-OV-3 ovarian as test system: `COC(=O)C(=O)CC(=O)CCn1ncc(Cl)c(Cl)c1=O`
40.8 µM

Give TGI (SK-OV-3 ovarian) of the following compound: `CCCCN(CC)c1nc(C)nc2c1c(C)c(C)n2-c1c(C)cc(C)cc1C`
32.9 µM

Item Nc1nc(Cl)cc(NCC2(CO)CC(CCc3ccccc3)C2)n1 (centres undefined) with SK-OV-3 ovarian - TGI?
> 100 µM

Give the reported TGI for `CCN(CC)CCn1c2cc3c(cc2c(=O)c2cccnc21)OCCO3` (system: SK-OV-3 ovarian).
> 10 µM

Short answer please: TGI, SK-OV-3 ovarian, entry `N/C(CC(=O)Nc1cc(C(F)(F)F)ccc1Cl)=N\O`
> 100 µM
